# measurement_target: T1, human importin α3 (intact, with the IBB domain) (human, UniProt O00629 1-521)
# T1 construct: human importin α3 (KPNA4), intact protein with the IBB domain; codon-optimized synthetic DNA in the vector pHTP1; also called Impα3; KPNA4; source: E. coli BL21 (DE3), purified (as for ΔImpα3)
# T1 sequence (looked up): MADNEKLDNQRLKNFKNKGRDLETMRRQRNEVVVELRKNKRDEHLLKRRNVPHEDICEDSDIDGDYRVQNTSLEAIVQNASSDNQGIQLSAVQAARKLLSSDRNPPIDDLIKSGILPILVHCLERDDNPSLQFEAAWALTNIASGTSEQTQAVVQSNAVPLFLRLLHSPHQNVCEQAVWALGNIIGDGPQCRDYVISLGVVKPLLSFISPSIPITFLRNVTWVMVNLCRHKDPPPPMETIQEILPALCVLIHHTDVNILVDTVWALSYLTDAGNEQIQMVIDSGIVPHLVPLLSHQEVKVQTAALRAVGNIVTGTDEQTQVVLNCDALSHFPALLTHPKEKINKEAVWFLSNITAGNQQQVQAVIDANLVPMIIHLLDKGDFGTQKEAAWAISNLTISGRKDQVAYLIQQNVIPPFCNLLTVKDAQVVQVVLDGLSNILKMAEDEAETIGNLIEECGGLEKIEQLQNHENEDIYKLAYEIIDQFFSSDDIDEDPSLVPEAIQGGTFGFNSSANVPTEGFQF
# assay: ITC; Impα3 or ΔImpα3 (10–20 μM) in the cell, NLS-NUPR1 peptide (150–300 μM) in the syringe; Tris 50 mM, pH 8; 298 K; single ligand binding site (1:1) model, n gives the fraction of binding-competent protein
# applied_conditions: both partners purified
In this section, each of the binders is paired with its reported dH.
Answer in kcal/mol, number only, no unit symbol.

Ac-YTNRPSPGGHERALVEKLQNSE-NH2 (tyrosine introduced at the N terminus for absorbance measurements; not a residue of NUPR1; also called K65AT68E peptide; source: synthetic peptide (NZYtech, purity 95%)) [NLS-NUPR1 peptide K65AT68E]	-7.8
Ac-YTNRPSPGGHERALVEALQNSE-NH2 (tyrosine introduced at the N terminus for absorbance measurements; not a residue of NUPR1; also called K65AT68EK69A peptide; triple mutant; source: synthetic peptide (NZYtech, purity 95%)) [NLS-NUPR1 peptide K65AT68EK69A]	-16.3

Pending binder:
Incoming: Entry under review: Ac-YTNRPSPGGHERKLVTKLQNSE-NH2 (tyrosine introduced at the N terminus for absorbance measurements; not a residue of NUPR1; The added Tyr stands where NUPR1 has residue 53; also called wt; wt peptide; source: synthetic peptide (NZYtech, purity 95%)) [wild-type NLS-NUPR1 peptide (residues 54-74 of NUPR1 with an added N-terminal Tyr)] . Reported dH?
Outgoing: 0.8
